Target of assay: T1, mfNPR1-mFc (monkey)
T1 construct: also called dimeric monkey NPR1
T1 chain: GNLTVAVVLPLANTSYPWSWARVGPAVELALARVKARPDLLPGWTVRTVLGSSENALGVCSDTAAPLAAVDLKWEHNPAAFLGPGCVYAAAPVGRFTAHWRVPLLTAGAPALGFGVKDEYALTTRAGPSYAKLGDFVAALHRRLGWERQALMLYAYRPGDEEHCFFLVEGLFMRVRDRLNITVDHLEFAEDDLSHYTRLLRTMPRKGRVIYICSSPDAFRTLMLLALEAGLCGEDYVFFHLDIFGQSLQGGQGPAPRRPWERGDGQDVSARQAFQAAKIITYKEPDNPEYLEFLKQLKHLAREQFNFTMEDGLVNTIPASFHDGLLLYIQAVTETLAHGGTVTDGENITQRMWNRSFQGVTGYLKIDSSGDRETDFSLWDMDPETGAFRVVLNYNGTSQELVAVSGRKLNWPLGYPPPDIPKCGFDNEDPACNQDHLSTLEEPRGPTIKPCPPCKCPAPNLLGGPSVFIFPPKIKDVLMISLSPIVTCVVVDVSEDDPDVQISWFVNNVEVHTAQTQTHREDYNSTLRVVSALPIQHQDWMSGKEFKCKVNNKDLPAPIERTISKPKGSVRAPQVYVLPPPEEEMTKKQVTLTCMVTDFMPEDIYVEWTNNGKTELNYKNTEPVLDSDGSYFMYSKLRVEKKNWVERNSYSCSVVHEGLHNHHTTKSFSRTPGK
Test description: SPR, mAb captured, 37C
Assign True to entries whose kon meets or exceeds 50000 M⁻¹ s⁻¹; assign False to the rest.

binder="mAb25508 (antibody, human IgG4, V domains shown) VH: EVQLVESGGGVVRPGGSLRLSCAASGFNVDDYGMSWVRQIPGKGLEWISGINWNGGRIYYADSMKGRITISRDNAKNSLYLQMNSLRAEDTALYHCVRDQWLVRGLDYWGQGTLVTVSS VL: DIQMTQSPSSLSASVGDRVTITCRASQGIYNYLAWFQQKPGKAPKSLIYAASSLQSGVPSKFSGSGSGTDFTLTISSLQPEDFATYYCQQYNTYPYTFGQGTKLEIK" class=True
binder="mAb22033 (antibody, human IgG4, V domains shown) VH: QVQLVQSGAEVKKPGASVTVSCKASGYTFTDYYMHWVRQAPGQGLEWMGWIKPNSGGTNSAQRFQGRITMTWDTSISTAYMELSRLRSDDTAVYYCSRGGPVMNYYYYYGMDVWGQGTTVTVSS VL: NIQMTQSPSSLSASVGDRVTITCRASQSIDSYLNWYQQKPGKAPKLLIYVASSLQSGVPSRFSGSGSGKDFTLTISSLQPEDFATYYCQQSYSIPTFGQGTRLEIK" class=False
binder="mAb25497 (antibody, human IgG4, V domains shown) VH: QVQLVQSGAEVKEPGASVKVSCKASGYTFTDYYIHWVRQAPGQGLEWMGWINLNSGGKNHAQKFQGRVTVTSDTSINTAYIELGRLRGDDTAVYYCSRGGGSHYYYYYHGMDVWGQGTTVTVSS VL: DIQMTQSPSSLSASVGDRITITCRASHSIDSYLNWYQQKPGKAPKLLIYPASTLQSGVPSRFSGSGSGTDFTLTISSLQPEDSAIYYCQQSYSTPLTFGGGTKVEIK" class=False
binder="mAb25479 (antibody, human IgG4, V domains shown) VH: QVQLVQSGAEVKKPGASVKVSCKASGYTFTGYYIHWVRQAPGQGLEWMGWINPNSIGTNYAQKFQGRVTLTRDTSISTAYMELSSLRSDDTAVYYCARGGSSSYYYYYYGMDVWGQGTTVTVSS VL: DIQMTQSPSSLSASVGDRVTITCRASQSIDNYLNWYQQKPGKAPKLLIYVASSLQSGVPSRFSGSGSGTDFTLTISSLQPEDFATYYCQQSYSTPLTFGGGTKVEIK" class=False

Task: Does kon meet or surpass 50000 M⁻¹ s⁻¹ for mAb22035 (antibody, human IgG4, V domains shown) VH: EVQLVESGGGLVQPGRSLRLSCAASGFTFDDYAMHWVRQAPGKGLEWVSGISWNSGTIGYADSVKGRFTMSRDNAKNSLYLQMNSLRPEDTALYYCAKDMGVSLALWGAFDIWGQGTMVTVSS VL: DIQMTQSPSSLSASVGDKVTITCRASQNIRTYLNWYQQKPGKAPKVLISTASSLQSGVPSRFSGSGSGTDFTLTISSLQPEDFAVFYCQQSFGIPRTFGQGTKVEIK ?
Result: True

Task: Quick check, kon >= 50000 M⁻¹ s⁻¹? mAb25491 (antibody, human IgG4, V domains shown) VH: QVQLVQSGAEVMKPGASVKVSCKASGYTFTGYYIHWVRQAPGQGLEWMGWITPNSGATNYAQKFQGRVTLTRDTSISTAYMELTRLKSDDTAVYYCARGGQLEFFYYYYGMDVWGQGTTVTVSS VL: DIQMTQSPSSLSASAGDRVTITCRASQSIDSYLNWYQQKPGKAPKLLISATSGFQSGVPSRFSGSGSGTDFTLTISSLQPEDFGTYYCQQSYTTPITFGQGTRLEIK
Result: False
